Numbers sourced from patent US5863916A.

- MEASURED_TARGET: non-NMDA receptor
- ASSAY_DETAILS: non-NMDA receptor affinity
ATTRIBUTE_MEASURED: pKi
# pKi: negative log10 of molar concentration; output just the value

Return reported pKi; argument: "O=c1[nH]c2cc([N+](=O)[O-])c[n+]([O-])c2[nH]c1=O"
6.47
